- ASSAY SUMMARY: Metabolic stability in mouse liver microsomes assessed as parent compound remaining at 0.5 uM after 10 mins in presence of NADPH by LC-MS/MS analysis
Response field label takes Y when remaining at 10 min, 0.5 µM is strictly below 4% and N in all other cases.

INSERT INTO results (smiles_data, qualitative_label) VALUES
  ('C(=C\CN(C[C@H]1Cc2ccccc2CN1)[C@H]1CCCc2cccnc21)/CNC1CCOCC1', 'N'),
  ('NCc1ccccc1CN(C[C@H]1Cc2ccccc2CN1)[C@H]1CCCc2cccnc21', 'Y'),
  ('c1ccc(CNCCCCN(C[C@H]2Cc3ccccc3CN2)[C@H]2CCCc3cccnc32)cc1', 'N'),
  ('NC/C=C\CN(C[C@H]1Cc2ccccc2CN1)[C@H]1CCCc2cccnc21', 'N'),
  ('c1cncc(CN(CCCCN(C[C@H]2Cc3ccccc3CN2)[C@H]2CCCc3cccnc32)Cc2cccnc2)c1', 'Y');
